Taken from PubChem BioAssay AID1963832.

- System: 885724-159-R-J1-PDC complex spheroid viability;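 further: spheroids exposed to compounds for 7 days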
- Method: Anticancer human tumor 885724-159-R-J1-PDC patient-derived pancreatic adenocarcinoma cell line growth inhibition [POLQ]
- Applied Conditions: second compound 10 µM; first compound 3.16 µM; active compounds read low
- Procedure: Multicellular complex tumor spheroid response to Polymerase (POL) inhibitors (novobiocin, ART-558, RP6685) in combination with a variety of drugs and investigational agents in selected tumor cell lines The POL inhibitors (novobiocin, ART-558, and RP6685) were evaluated both individually and in combination with standard of care and investigational anticancer small molecules within a complex spheroid model of solid tumors. . […]
Reported Endpoint: viability, T/C (%)

Compound: O=c1[nH]cc(F)c(=O)[nH]1 + COC1C(OC(N)=O)C(O)C(Oc2ccc3c(O)c(NC(=O)c4ccc(O)c(CC=C(C)C)c4)c(=O)oc3c2C)OC1(C)C
Tested System: 885724-159-R-J1-PDC complex spheroid viability;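 further: spheroids exposed to compounds for 7 days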
Experimental Value: 83.2
//
Compound: COc1cc(C2c3cc4c(cc3C(OC3OC5COC(C)OC5C(O)C3O)C3COC(=O)C23)OCO4)cc(OC)c1O (stereo unspecified) + Nc1ccc(C#CCN(C(=O)Cc2ncc(C(F)(F)F)cc2C(F)(F)F)c2ccc(F)cc2)nn1
Tested System: 885724-159-R-J1-PDC complex spheroid viability;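 further: spheroids exposed to compounds for 7 days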
Experimental Value: 62.8
//
Compound: C#Cc1c(F)ccc2cc(O)cc(-c3ncc4c(N5CC6CCC(C5)N6)nc(OCC56CCCN5CC(F)C6)nc4c3F)c12 (stereo unspecified) + Nc1ccc(C#CCN(C(=O)Cc2ncc(C(F)(F)F)cc2C(F)(F)F)c2ccc(F)cc2)nn1
Tested System: 885724-159-R-J1-PDC complex spheroid viability;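 further: spheroids exposed to compounds for 7 days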
Experimental Value: 50.4
//
Compound: Nc1ccn(C2OC(CO)C(O)C2(F)F)c(=O)n1 (stereo unspecified) + Nc1ccc(C#CCN(C(=O)Cc2ncc(C(F)(F)F)cc2C(F)(F)F)c2ccc(F)cc2)nn1
Tested System: 885724-159-R-J1-PDC complex spheroid viability;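 further: spheroids exposed to compounds for 7 days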
Experimental Value: 54.9
//
Compound: CNCc1ccc(-c2[nH]c3cc(F)cc4c3c2CCNC4=O)cc1 + Nc1ccc(C#CCN(C(=O)Cc2ncc(C(F)(F)F)cc2C(F)(F)F)c2ccc(F)cc2)nn1
Tested System: 885724-159-R-J1-PDC complex spheroid viability;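 further: spheroids exposed to compounds for 7 days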
Experimental Value: 92.2
//
Compound: COc1ccc([C@@H](O)c2cc(-c3ncnc4cc(N5CCOCC5)ccc34)c(F)cc2Cl)nn1 + Nc1ccc(C#CCN(C(=O)Cc2ncc(C(F)(F)F)cc2C(F)(F)F)c2ccc(F)cc2)nn1
Tested System: 885724-159-R-J1-PDC complex spheroid viability;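 further: spheroids exposed to compounds for 7 days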
Experimental Value: 59.1
//
Compound: CC1COCCN1c1cc(C2(S(C)(=N)=O)CC2)nc(-c2ccnc3[nH]ccc23)n1 (stereo unspecified) + Cc1cccc(N(C)C(=O)C2C(O)CCN2c2nc(C)cc(C(F)(F)F)c2C#N)c1
Tested System: 885724-159-R-J1-PDC complex spheroid viability;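 further: spheroids exposed to compounds for 7 days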
Experimental Value: 56.4
//
Compound: CCCS(=O)(=O)Nc1ccc(F)c(C(=O)c2c[nH]c3ncc(-c4ccc(Cl)cc4)cc23)c1F + Cc1cccc(N(C)C(=O)C2C(O)CCN2c2nc(C)cc(C(F)(F)F)c2C#N)c1
Tested System: 885724-159-R-J1-PDC complex spheroid viability;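 further: spheroids exposed to compounds for 7 days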
Experimental Value: 137
//
Compound: Nc1ccn(C2OC(CO)C(O)C2(F)F)c(=O)n1 (stereo unspecified) + COC1C(OC(N)=O)C(O)C(Oc2ccc3c(O)c(NC(=O)c4ccc(O)c(CC=C(C)C)c4)c(=O)oc3c2C)OC1(C)C
Tested System: 885724-159-R-J1-PDC complex spheroid viability;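 further: spheroids exposed to compounds for 7 days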
Experimental Value: 50.5
//
Compound: O=c1[nH]cc(F)c(=O)[nH]1 + Nc1ccc(C#CCN(C(=O)Cc2ncc(C(F)(F)F)cc2C(F)(F)F)c2ccc(F)cc2)nn1
Tested System: 885724-159-R-J1-PDC complex spheroid viability;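 further: spheroids exposed to compounds for 7 days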
Experimental Value: 92.8
//
Compound: O=C(Nc1ccc(O)c(NS(=O)(=O)c2ccc(F)cc2)c1)c1ccc(-c2ccccc2)cc1 + Cc1cccc(N(C)C(=O)C2C(O)CCN2c2nc(C)cc(C(F)(F)F)c2C#N)c1
Tested System: 885724-159-R-J1-PDC complex spheroid viability;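 further: spheroids exposed to compounds for 7 days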
Experimental Value: 123
